Provide the recorded Emax for the entries that follow.
Assay System: human MRGPRX4-83L (Homo sapiens, UniProt Q96LA9)
Construct: host or cells: CHO β-arrestin cells
Sequence (Q96LA9 whole entry): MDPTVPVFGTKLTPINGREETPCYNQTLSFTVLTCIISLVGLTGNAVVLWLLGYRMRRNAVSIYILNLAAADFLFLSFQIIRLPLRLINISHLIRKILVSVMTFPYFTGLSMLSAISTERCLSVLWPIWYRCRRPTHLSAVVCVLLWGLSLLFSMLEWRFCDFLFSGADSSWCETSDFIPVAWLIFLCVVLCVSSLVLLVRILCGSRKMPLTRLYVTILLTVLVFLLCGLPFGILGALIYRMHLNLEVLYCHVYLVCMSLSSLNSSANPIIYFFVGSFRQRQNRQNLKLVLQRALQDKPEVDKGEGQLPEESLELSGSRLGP
Assay Text: Calcium assay (human MRGPRX4 83L), recombinant astrocytes
Format: cell-based
Measurement Context: Table 4; efficacy based on maximal effect of 1 μM B-16 (set as 100%); read-out: Emax
Please state the figure in %; there is no need to write the unit.

Prompt line: Given the molecule C#CCn1c(=O)c2c(nc(CCc3ccccc3I)n2C(C)C)n(CCCCP(=O)(O)O)c1=O , what is its reported Emax?
Response line: 118

Prompt line: Given the molecule C#CCn1c(=O)c2c(nc(CCc3c(Cl)cccc3Cl)n2CC)n(CCCCP(=O)(O)O)c1=O , what is its reported Emax?
Response line: 97

Prompt line: Given the molecule C#CCn1c(=O)c2c(nc(CCc3ccccc3Br)n2C(C)C)n(CCCCP(=O)(O)O)c1=O , what is its reported Emax?
Response line: 108

Prompt line: Given the molecule C#CCn1c(=O)c2c(nc(CCc3ccccc3F)n2CC)n(CCCCP(=O)(O)O)c1=O , what is its reported Emax?
Response line: 97

Prompt line: Given the molecule C#CCn1c(=O)c2c(nc(CCc3ccc(Br)cc3)n2CC)n(CCCCP(=O)(O)O)c1=O , what is its reported Emax?
Response line: 41

Prompt line: Given the molecule C#CCn1c(=O)c2[nH]c(CCc3ccccc3I)nc2n(CCCCP(=O)(O)O)c1=O , what is its reported Emax?
Response line: 103

The reported numbers originate from patent US20240002416A1.
